B1: SOAT1 (parent)
chain: PSNGRIDIKQLIAKKIKLTAEAEE

variants of: B1; experiment: protein stability index of a GFP-peptide fusion (GPS, HEK-293T) (PSI 1-6); higher = more stable; settings: c terminus: a fixed tail appended;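 also: lentivirally expressed fusions sorted by FACS into six bins by GFP to DsRed ratio, PSI derived from sequencing read proportions per bin multiplied by bin number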
Measured protein stability index by item
measured-quantity: protein stability index

[[record]]
variant_label = "N3T"
measured_quantity = "protein stability index"
result = 4.2

[[record]]
variant_label = "P1Q"
measured_quantity = "protein stability index"
result = 3.23

[[record]]
variant_label = "I16L"
measured_quantity = "protein stability index"
result = 3.22

[[record]]
variant_label = "A22F"
measured_quantity = "protein stability index"
result = 2.35

[[record]]
variant_label = "A20I"
measured_quantity = "protein stability index"
result = 2.7

[[record]]
variant_label = "T19D"
measured_quantity = "protein stability index"
result = 4.18

[[record]]
variant_label = "K17P"
measured_quantity = "protein stability index"
result = 3.84

[[record]]
variant_label = "E21H"
measured_quantity = "protein stability index"
result = 3.13

[[record]]
variant_label = "K14T"
measured_quantity = "protein stability index"
result = 3.34

[[record]]
variant_label = "P1M"
measured_quantity = "protein stability index"
result = 3.1

[[record]]
variant_label = "Q10M"
measured_quantity = "protein stability index"
result = 2.67

[[record]]
variant_label = "I6T"
measured_quantity = "protein stability index"
result = 3.58

[[record]]
variant_label = "S2M"
measured_quantity = "protein stability index"
result = 3.11

[[record]]
variant_label = "Q10A"
measured_quantity = "protein stability index"
result = 3.35

[[record]]
variant_label = "R5D"
measured_quantity = "protein stability index"
result = 4.47

[[record]]
variant_label = "A20H"
measured_quantity = "protein stability index"
result = 3.66

[[record]]
variant_label = "I16F"
measured_quantity = "protein stability index"
result = 2.97

[[record]]
variant_label = "I12V"
measured_quantity = "protein stability index"
result = 3.48

[[record]]
variant_label = "E24A"
measured_quantity = "protein stability index"
result = 2.78

[[record]]
variant_label = "D7E"
measured_quantity = "protein stability index"
result = 3.4

[[record]]
variant_label = "A20Q"
measured_quantity = "protein stability index"
result = 3.44

[[record]]
variant_label = "L18T"
measured_quantity = "protein stability index"
result = 3.38

[[record]]
variant_label = "N3L"
measured_quantity = "protein stability index"
result = 3.46

[[record]]
variant_label = "K17R"
measured_quantity = "protein stability index"
result = 2.99

[[record]]
variant_label = "E24I"
measured_quantity = "protein stability index"
result = 2.27

[[record]]
variant_label = "R5W"
measured_quantity = "protein stability index"
result = 3.48

[[record]]
variant_label = "S2A"
measured_quantity = "protein stability index"
result = 2.88

[[record]]
variant_label = "A22M"
measured_quantity = "protein stability index"
result = 3

[[record]]
variant_label = "T19V"
measured_quantity = "protein stability index"
result = 2.75

[[record]]
variant_label = "A22D"
measured_quantity = "protein stability index"
result = 4.05

[[record]]
variant_label = "A20T"
measured_quantity = "protein stability index"
result = 3.47

[[record]]
variant_label = "Q10E"
measured_quantity = "protein stability index"
result = 3.73

[[record]]
variant_label = "I12P"
measured_quantity = "protein stability index"
result = 3.7

[[record]]
variant_label = "I12G"
measured_quantity = "protein stability index"
result = 3.9

[[record]]
variant_label = "G4E"
measured_quantity = "protein stability index"
result = 4.39

[[record]]
variant_label = "N3K"
measured_quantity = "protein stability index"
result = 3.96

[[record]]
variant_label = "L11P"
measured_quantity = "protein stability index"
result = 3.66

[[record]]
variant_label = "S2N"
measured_quantity = "protein stability index"
result = 3.61

[[record]]
variant_label = "A22G"
measured_quantity = "protein stability index"
result = 3.66

[[record]]
variant_label = "N3M"
measured_quantity = "protein stability index"
result = 3.66

[[record]]
variant_label = "R5M"
measured_quantity = "protein stability index"
result = 3.55

[[record]]
variant_label = "K15C"
measured_quantity = "protein stability index"
result = 2.5

[[record]]
variant_label = "P1E"
measured_quantity = "protein stability index"
result = 2.65

[[record]]
variant_label = "T19S"
measured_quantity = "protein stability index"
result = 2.9

[[record]]
variant_label = "S2D"
measured_quantity = "protein stability index"
result = 4.03

[[record]]
variant_label = "T19Y"
measured_quantity = "protein stability index"
result = 2.52

